Below are log10 of Ki values for Carbonic anhydrase 9 (Homo sapiens, UniProt Q16790) collected from several publications.
The base-10 logarithm of Ki, taken with Ki in nM, is what appears here.

These solved cases illustrate the format of a correct answer.
Test Smiles | System Under Test | Numeric Readout
COC(=O)c1ccccc1NC(=O)Cn1ccc(=O)c(S(N)(=O)=O)c1 | Carbonic anhydrase 9 (Homo sapiens, UniProt Q16790) | 1.94
NS(=O)(=O)c1ccc(OCc2cn(-c3ccc(C(F)(F)F)cc3)nn2)cc1 | Carbonic anhydrase 9 (Homo sapiens, UniProt Q16790) | 1.37
COc1ccc2nc(-c3ccccc3OC)cc(C(=O)Nc3ccc4c(c3)c(S(N)(=O)=O)cn4C)c2c1 | Carbonic anhydrase 9 (Homo sapiens, UniProt Q16790) | 4.59
COC(=O)C1=Cc2ccc(OC)cc2OC(=O)C1 | Carbonic anhydrase 9 (Homo sapiens, UniProt Q16790) | 1.92

Q: Lookup: log10 of Ki / Carbonic anhydrase 9 (Homo sapiens, UniProt Q16790) / NS(=O)(=O)c1nnc(NS(=O)(=O)c2c(F)c(F)cc(F)c2F)s1
A: 0.63

Q: Request body: readout log10 of Ki, system Carbonic anhydrase 9 (Homo sapiens, UniProt Q16790), query CCOC(=O)[C@@H]1C[C@H]1Cc1c(Br)cc(OC)c(OC)c1Br . Return the value.
A: 3.99

====

Literature survey of Ki (system: Carbonic anhydrase 9 (Homo sapiens, UniProt Q16790)).
Output spec: scalar in nM, unitless text.

See these solved cases before continuing.
Test Smiles | System Under Test | Ki, nM
CCCC(=O)OC[C@H]1O[C@@H](n2cc(-c3cccc(S(N)(=O)=O)c3)nn2)[C@H](OC(=O)CCC)[C@@H](OC(=O)CCC)[C@H]1OC(=O)CCC | Carbonic anhydrase 9 (Homo sapiens, UniProt Q16790) | 69.2
Nc1ccc(S(=O)(=O)Nc2ccc(S(N)(=O)=O)cc2)cc1 | Carbonic anhydrase 9 (Homo sapiens, UniProt Q16790) | 34
Cc1ccc(OS(N)(=O)=O)cc1 | Carbonic anhydrase 9 (Homo sapiens, UniProt Q16790) | 59

Q: Query (compound): CN(CS(=O)(=O)O)c1ccccc1 ; field requested: Ki
A: 5850

Q: Endpoint output: Ki of COc1ccc(C(=O)Nc2ccc([Se]Cc3ccc(S(N)(=O)=O)cc3)cc2)c(OC)c1 . Value?
A: 845

Q: Report Ki for OB1OCc2ccc(/N=C/c3ccc(/C=N/c4ccc5c(c4)B(O)OC5)s3)cc21 please.
A: 203

Q: GET /values?readout=Ki&item= O=c1ccc2cc(O)c(O)cc2o1
A: 36.4

Q: Report Ki for NS(=O)(=O)c1ccc(NC(=O)Nc2ccc(/N=C3\C(=O)N(Cc4ccccc4)c4ccc(Cl)cc43)cc2)cc1 please.
A: 86.1

Q: # query: Ki of entry NS(=O)(=O)c1ccc(OCCCCNC(=S)Nc2ccc(-c3c4ccc(=O)cc-4oc4cc(O)ccc34)c(C(=O)O)c2)cc1
A: 8.8

Q: Reported Ki for NS(=O)(=O)c1ccc(C(=O)N/N=C/c2ccc(-n3nnc4ccccc43)cc2)cc1 : what is it?
A: 23.7

Q: Could you tell me which Ki is on file for NS(=O)(=O)c1nnc(/N=C/c2ccc(/C=N/c3nnc(S(N)(=O)=O)s3)cc2)s1 ?
A: 25.2

Q: Value lookup for Ki; key = Cc1cccc(/C=N/c2ccc(S(N)(=O)=O)cc2)c1O
A: 465

Q: Given CC(=O)c1nn(-c2ccc(S(N)(=O)=O)cc2)c2nc3nc(-c4ccc(Cl)cc4)cc(-c4ccccc4)c3c(=O)n12 , state its recorded Ki.
A: 180
